Hello, the source for this data is ChEMBL document CHEMBL2057142, in case you need it.

# MEASURED TARGET: Long-chain fatty acid transport protein 1 (Homo sapiens, UniProt Q6PCB7)
# Sequence (Q6PCB7 whole entry): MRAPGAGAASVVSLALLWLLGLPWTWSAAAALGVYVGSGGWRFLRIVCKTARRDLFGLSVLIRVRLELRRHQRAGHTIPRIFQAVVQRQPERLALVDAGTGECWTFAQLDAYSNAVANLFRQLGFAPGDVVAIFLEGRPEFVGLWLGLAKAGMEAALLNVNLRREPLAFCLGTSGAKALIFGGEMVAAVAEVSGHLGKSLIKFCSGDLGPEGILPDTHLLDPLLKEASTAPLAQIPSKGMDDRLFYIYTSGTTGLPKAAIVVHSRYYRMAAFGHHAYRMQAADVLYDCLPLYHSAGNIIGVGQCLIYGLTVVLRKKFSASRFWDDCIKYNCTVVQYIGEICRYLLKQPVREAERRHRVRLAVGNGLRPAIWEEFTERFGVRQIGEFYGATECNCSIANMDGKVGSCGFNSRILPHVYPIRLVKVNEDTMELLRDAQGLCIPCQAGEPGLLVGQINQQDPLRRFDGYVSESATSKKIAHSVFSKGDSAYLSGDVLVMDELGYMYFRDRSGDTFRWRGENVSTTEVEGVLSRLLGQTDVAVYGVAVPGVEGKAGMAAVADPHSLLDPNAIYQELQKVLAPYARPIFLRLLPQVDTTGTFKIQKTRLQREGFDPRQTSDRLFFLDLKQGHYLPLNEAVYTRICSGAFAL
# METHOD SUMMARY: Inhibition of human recombinant FATP1 acyl-coA synthetase activity using [14C]oleic acid as substrate
pIC50: −log10 of the molar value.
VALUE KIND: pIC50

- STRUCTURE: "CCn1c(CNc2ccccc2)nnc1SCC(=O)Nc1ccc(C(=O)N(C)C)cc1"
  MEASURED: "< 6.00"
- STRUCTURE: "CCn1c(CNc2ccccc2)nnc1SCc1nc2ccccc2o1"
  MEASURED: "< 6.00"
- STRUCTURE: "CCn1c(CNc2ccccc2)nnc1SCc1nc2ccc(Cl)cc2o1"
  MEASURED: "< 6.00"
- STRUCTURE: "CCn1c(CNc2ccccc2)nnc1SCC(=O)Nc1ccc(Cl)cc1"
  MEASURED: "< 6.00"
- STRUCTURE: "CCOC(=O)c1ccc2c(c1)CCCN2C(=O)CSc1nnc(CNc2ccccc2)n1CC"
  MEASURED: "< 6.00"
- STRUCTURE: "CCC(=O)c1ccc2nc(CSc3nnc(CNc4ccccc4)n3CC)oc2c1"
  MEASURED: 6.05
- STRUCTURE: "CCc1ccc2oc(CSc3nnc(CNc4ccccc4)n3CC)nc2c1"
  MEASURED: "< 6.00"
- STRUCTURE: "CCn1c(CNc2ccccc2)nnc1SCc1nc2cc(F)ccc2o1"
  MEASURED: "< 6.00"
- STRUCTURE: "CCn1c(CNc2ccccc2)nnc1SCC(=O)Nc1ccc(OC)cc1"
  MEASURED: "< 6.00"
- STRUCTURE: "C=CCn1c(CNc2ccccc2)nnc1SCC(=O)Nc1ccc(OC)cc1"
  MEASURED: 5.18
- STRUCTURE: "CCn1c(CNc2ccccc2)nnc1SCC(=O)Nc1ccc(C(C)=O)cc1"
  MEASURED: "< 6.00"

###

# METHOD SUMMARY: AUC in rat at 10 mg/kg, po
# Assay type: ADME, organism-based, Plasma
# Design: dose 10 mg/kg, route oral
# CONDITION DETAILS: plasma

- STRUCTURE: "CCn1c(CNc2ccccc2)nnc1SCc1nc2cc(OC(F)(F)F)ccc2o1"
  AUC: "200 ng·h/mL"
- STRUCTURE: "CCn1c(CNc2ccccc2)nnc1SCc1nc2cc(C(F)(F)F)ccc2o1"
  AUC: "280 ng·h/mL"

###

pIC50 for assorted molecules
# MEASURED TARGET: Long-chain fatty acid transport protein 1 (Mus musculus, UniProt Q60714)
# Sequence (Q60714 whole entry): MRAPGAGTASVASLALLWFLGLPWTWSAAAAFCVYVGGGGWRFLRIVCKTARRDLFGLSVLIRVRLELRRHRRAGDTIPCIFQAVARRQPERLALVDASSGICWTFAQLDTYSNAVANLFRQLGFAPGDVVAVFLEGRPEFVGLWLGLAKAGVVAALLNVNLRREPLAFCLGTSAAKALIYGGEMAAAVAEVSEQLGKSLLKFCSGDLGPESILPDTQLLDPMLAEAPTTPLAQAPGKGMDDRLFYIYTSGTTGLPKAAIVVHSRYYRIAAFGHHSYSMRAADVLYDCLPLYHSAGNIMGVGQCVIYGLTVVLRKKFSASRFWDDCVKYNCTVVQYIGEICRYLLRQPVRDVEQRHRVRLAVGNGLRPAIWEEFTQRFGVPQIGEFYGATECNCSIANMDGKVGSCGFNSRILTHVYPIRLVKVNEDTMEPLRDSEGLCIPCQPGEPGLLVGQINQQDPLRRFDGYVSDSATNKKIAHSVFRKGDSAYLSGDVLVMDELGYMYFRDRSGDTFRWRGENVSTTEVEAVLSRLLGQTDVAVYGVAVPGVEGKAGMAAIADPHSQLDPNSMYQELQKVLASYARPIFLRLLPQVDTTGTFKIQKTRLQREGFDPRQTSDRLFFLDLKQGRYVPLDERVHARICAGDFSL
# METHOD SUMMARY: Inhibition of mouse recombinant FATP1 acyl-coA synthetase activity using [14C]oleic acid as substrate
pIC50: −log10 of the molar value.

- STRUCTURE: "CCn1c(CNc2ccccc2)nnc1SCc1nc2cc(OC)ccc2o1"
  MEASURED TARGET: "Long-chain fatty acid transport protein 1 (Mus musculus, UniProt Q60714)"
  pIC50: 5.57
- STRUCTURE: "CCn1c(CNc2ccccc2)nnc1SCC(=O)Nc1ccc(C(=O)OC(C)(C)C)cc1"
  MEASURED TARGET: "Long-chain fatty acid transport protein 1 (Mus musculus, UniProt Q60714)"
  pIC50: "< 5.00"
- STRUCTURE: "CCC(=O)c1ccc(NC(=O)CSc2nnc(CNc3ccccc3)n2CC)cn1"
  MEASURED TARGET: "Long-chain fatty acid transport protein 1 (Mus musculus, UniProt Q60714)"
  pIC50: 5.82
- STRUCTURE: "CCn1c(CNc2ccccc2)nnc1SCC(=O)Nc1ccc(C(=O)N(C)C)cc1"
  MEASURED TARGET: "Long-chain fatty acid transport protein 1 (Mus musculus, UniProt Q60714)"
  pIC50: "< 5.00"
- STRUCTURE: "CCn1c(CNc2ccccc2)nnc1SCC(=O)Nc1ccc(C(=O)NC)cc1"
  MEASURED TARGET: "Long-chain fatty acid transport protein 1 (Mus musculus, UniProt Q60714)"
  pIC50: "< 5.00"
- STRUCTURE: "CCn1c(CNc2ccccc2)nnc1SCC(=O)Nc1ccc(Cl)cc1"
  MEASURED TARGET: "Long-chain fatty acid transport protein 1 (Mus musculus, UniProt Q60714)"
  pIC50: "< 5.00"

###

# MEASURED TARGET: Long-chain fatty acid transport protein 1 (Mus musculus)
# METHOD SUMMARY: Inhibition of mouse recombinant FATP1 acyl-coA synthetase activity using [14C]oleic acid as substrate
pIC50: −log10 of the molar value.
pIC50 for assorted molecules
VALUE KIND: pIC50

- STRUCTURE: "CCOC(=O)c1ccc(NC(=O)CSc2nnc(CSCc3ccccc3)n2CC)cc1"
  MODIFIER: "<"
  MEASURED: 5.00
- STRUCTURE: "CCC(=O)c1ccc(NC(=O)CSc2nnc(CNc3ccccc3)n2CC)cc1"
  MODIFIER: "="
  MEASURED: 6.00
- STRUCTURE: "CCn1c(CNc2ccccc2)nnc1SCC(=O)Nc1ccc(C#N)cc1"
  MODIFIER: "="
  MEASURED: 5.29
- STRUCTURE: "CC/C(=N/O)c1ccc2oc(CSc3nnc(CNc4ccccc4)n3CC)nc2c1"
  MODIFIER: "="
  MEASURED: 6.70
- STRUCTURE: "CCn1c(CNc2ccccc2)nnc1SCc1nc2cc(OC(F)(F)F)ccc2o1"
  MODIFIER: "="
  MEASURED: 7.04

###

# MEASURED TARGET: Long-chain fatty acid transport protein 1 (Mus musculus, UniProt Q60714)
# METHOD SUMMARY: Inhibition of mouse recombinant FATP1 acyl-coA synthetase activity using [14C]oleic acid as substrate
pIC50: −log10 of the molar value.
pIC50 for assorted compounds
VALUE KIND: pIC50

- COMPOUND: "C=CCn1c(CNc2ccccc2)nnc1SCC(=O)Nc1ccc(OC)cc1"
  MEASURED TARGET: "Long-chain fatty acid transport protein 1 (Mus musculus, UniProt Q60714)"
  MODIFIER: "<"
  MEASURED: 5.00
- COMPOUND: "CCOC(=O)c1ccc2c(c1)CCN2C(=O)CSc1nnc(CNc2ccccc2)n1CC"
  MEASURED TARGET: "Long-chain fatty acid transport protein 1 (Mus musculus, UniProt Q60714)"
  MODIFIER: "<"
  MEASURED: 5.00
- COMPOUND: "CCOC(=O)c1ccc2c(c1)CCCN2C(=O)CSc1nnc(CNc2ccccc2)n1CC"
  MEASURED TARGET: "Long-chain fatty acid transport protein 1 (Mus musculus, UniProt Q60714)"
  MODIFIER: "="
  MEASURED: 5.54
- COMPOUND: "CCC(O)c1ccc2oc(CSc3nnc(CNc4ccccc4)n3CC)nc2c1 (stereo unspecified)"
  MEASURED TARGET: "Long-chain fatty acid transport protein 1 (Mus musculus, UniProt Q60714)"
  MODIFIER: "="
  MEASURED: 5.43
- COMPOUND: "CCn1c(CNc2ccccc2)nnc1SCc1nc2ccccc2o1"
  MEASURED TARGET: "Long-chain fatty acid transport protein 1 (Mus musculus, UniProt Q60714)"
  MODIFIER: "<"
  MEASURED: 5.00
- COMPOUND: "CCC(=O)c1ccc2oc(CS(=O)(=O)c3nnc(CNc4ccccc4)n3CC)nc2c1"
  MEASURED TARGET: "Long-chain fatty acid transport protein 1 (Mus musculus, UniProt Q60714)"
  MODIFIER: "="
  MEASURED: 4.92
- COMPOUND: "CCn1c(CNc2ccccc2)nnc1SCc1nc2cc(C)ccc2o1"
  MEASURED TARGET: "Long-chain fatty acid transport protein 1 (Mus musculus, UniProt Q60714)"
  MODIFIER: "<"
  MEASURED: 5.00
- COMPOUND: "CCOC(=O)c1ccc2oc(CSc3nnc(CNc4ccccc4)n3CC)nc2c1"
  MEASURED TARGET: "Long-chain fatty acid transport protein 1 (Mus musculus, UniProt Q60714)"
  MODIFIER: "="
  MEASURED: 6.08
- COMPOUND: "CCn1c(CNc2ccccc2)nnc1SCc1nc2cc(F)ccc2o1"
  MEASURED TARGET: "Long-chain fatty acid transport protein 1 (Mus musculus, UniProt Q60714)"
  MODIFIER: "="
  MEASURED: 5.11
- COMPOUND: "CCn1c(CNc2ccccc2)nnc1SCc1nc2cc(Cl)ccc2o1"
  MEASURED TARGET: "Long-chain fatty acid transport protein 1 (Mus musculus, UniProt Q60714)"
  MODIFIER: "="
  MEASURED: 5.64
- COMPOUND: "CCc1ccc2oc(CSc3nnc(CNc4ccccc4)n3CC)nc2c1"
  MEASURED TARGET: "Long-chain fatty acid transport protein 1 (Mus musculus, UniProt Q60714)"
  MODIFIER: "="
  MEASURED: 5.74
